system: Mus musculus; assay: AUC in Swiss Webster mouse at 5 mg/kg, po; format: ADME, organism-based, Plasma; design: dose 5 mg/kg, route oral; details: in vivo
reported.metric: AUC (ng·h/mL)
Kindly provide the numeric value in ng·h/mL only, without the unit symbol.

Example cases with answers are listed next.
{"compound": "CCCCOC(=O)CCCCCCCCCCCNC(=O)NC12CC3CC(CC(C3)C1)C2", "measurement.units": "ng·h/mL", "meas.value": 96}
{"compound": "CCC(C)OC(=O)CCCCCCCCCCCNC(=O)NC12CC3CC(CC(C3)C1)C2 (stereo not given)", "measurement.units": "ng·h/mL", "meas.value": 47}
{"compound": "CC(C)OC(=O)CCCCCCCCCCCNC(=O)NC12CC3CC(CC(C3)C1)C2", "measurement.units": "ng·h/mL", "meas.value": 84}

-- ask Any idea what its AUC is? The compound is O=C(O)CCCCCCCCCCCNC(=O)NC12CC3CC(CC(C3)C1)C2
-- reply 87

-- ask Record: CC(C)COC(=O)CCCCCCCCCCCNC(=O)NC12CC3CC(CC(C3)C1)C2
-- reply 110
